B1: library; numbered along this chain (parent)
chain: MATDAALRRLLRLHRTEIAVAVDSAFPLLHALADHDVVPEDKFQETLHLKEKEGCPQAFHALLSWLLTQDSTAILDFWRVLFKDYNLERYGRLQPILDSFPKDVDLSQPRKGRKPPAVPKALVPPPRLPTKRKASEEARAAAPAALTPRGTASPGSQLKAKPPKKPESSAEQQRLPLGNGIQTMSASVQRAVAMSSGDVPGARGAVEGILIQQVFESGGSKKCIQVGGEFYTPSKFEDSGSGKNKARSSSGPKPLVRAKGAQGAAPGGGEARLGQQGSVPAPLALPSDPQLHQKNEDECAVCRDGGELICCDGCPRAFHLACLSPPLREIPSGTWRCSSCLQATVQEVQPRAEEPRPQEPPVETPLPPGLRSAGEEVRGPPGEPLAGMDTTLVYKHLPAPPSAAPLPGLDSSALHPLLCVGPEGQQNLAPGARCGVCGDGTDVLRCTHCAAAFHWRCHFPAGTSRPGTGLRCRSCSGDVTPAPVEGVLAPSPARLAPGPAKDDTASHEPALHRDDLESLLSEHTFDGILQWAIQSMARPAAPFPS

- Variants of: B1
- assay.details: AIRE transcriptional activation functional score (insulin promoter-GFP; nonsense median 0, synonymous median 1) (normalised score); higher = higher AIRE activity (more reporter activation)
- condition.info: with insulin promoter-GFP reporter in HEK293
property.name: AIRE transcriptional activation functional score

Take a look at these entries with their results.
[[record]]
variant_identifier = "I330K"
endpoint_value = 0.557

[[record]]
variant_identifier = "G150A"
endpoint_value = -0.308

[[record]]
variant_identifier = "Q349A"
endpoint_value = 0.994

[[record]]
variant_identifier = "R79L"
endpoint_value = 0.11

[[record]]
variant_identifier = "A117T"
endpoint_value = 1.16


Moving on to the next variant.
Challenge: If you can, please state the reported AIRE transcriptional activation functional score value of Q358Y .
Response given: 1.04
